The origin of these recorded values is patent US20210347873A1.

- subject of test: mouse BLyS protein (mouse, UniProt Q9WU72 69-309)
- Sequence (Q9WU72 69-309): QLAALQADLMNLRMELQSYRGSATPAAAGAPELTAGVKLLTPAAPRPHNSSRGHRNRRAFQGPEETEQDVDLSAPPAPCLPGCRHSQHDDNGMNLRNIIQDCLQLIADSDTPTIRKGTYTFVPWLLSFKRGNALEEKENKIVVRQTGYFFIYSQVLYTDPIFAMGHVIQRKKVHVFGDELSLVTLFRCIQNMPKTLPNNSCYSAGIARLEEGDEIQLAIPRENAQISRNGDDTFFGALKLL
- experimental protocol: cell-based or functional assay
measurement kind: mouse B lymphocyte proliferation (OD450 nm), antibody 0 nM
Write it as a number; the unit OD450 nm goes unstated.

Take a look at these entries with their results.
binder: 78C11D2D12 (antibody, V domains shown, Mouse hybridoma monoclonal antibody purified on Protein G) VH: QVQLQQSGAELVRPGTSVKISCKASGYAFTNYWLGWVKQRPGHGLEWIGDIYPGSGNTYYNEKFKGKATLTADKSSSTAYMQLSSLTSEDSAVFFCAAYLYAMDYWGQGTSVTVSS VL: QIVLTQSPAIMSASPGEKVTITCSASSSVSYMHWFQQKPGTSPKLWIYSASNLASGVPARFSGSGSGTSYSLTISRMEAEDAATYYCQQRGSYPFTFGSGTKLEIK
unit abbrev: OD450 nm
experimental result: 1990
--
binder: 67A2E1D10 (antibody, V domains shown, Mouse hybridoma monoclonal antibody purified on Protein G) VH: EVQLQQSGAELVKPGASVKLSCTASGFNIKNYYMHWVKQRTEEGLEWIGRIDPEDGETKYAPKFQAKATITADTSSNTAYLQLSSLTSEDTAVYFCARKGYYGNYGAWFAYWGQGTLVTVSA VL: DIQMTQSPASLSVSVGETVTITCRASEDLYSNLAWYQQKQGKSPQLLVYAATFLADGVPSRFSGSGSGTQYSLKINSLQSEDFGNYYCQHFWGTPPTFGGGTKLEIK
unit abbrev: OD450 nm
experimental result: 2120
--
binder: 97E7B3F2 (antibody, V domains shown, Mouse hybridoma monoclonal antibody purified on Protein G) VH: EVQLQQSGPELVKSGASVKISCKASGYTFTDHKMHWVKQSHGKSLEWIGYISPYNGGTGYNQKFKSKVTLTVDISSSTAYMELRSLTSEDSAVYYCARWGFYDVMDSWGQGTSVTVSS VL: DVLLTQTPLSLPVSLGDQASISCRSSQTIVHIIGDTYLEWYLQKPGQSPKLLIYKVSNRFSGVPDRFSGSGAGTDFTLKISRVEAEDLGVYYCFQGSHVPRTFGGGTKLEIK
unit abbrev: OD450 nm
experimental result: 2130
--
binder: L1D12 (antibody, V domains shown, From a human naive scFv phage library; also called human BLyS antibody L1D12; LID12) VH: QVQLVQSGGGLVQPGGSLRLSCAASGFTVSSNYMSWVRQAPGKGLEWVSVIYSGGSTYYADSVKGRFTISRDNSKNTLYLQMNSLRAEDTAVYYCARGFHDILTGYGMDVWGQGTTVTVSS VL: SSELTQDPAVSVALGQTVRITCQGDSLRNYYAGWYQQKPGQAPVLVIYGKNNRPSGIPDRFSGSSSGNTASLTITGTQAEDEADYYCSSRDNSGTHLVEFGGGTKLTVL
unit abbrev: OD450 nm
experimental result: 2340

I would be grateful if you could share the reported mouse B lymphocyte proliferation (OD450 nm), antibody 0 nM for 97A3C2H4 (antibody, V domains shown, Mouse hybridoma monoclonal antibody purified on Protein G) VH: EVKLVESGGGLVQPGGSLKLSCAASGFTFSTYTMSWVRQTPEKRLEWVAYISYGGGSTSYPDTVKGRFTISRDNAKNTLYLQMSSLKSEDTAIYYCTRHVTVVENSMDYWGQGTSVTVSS VL: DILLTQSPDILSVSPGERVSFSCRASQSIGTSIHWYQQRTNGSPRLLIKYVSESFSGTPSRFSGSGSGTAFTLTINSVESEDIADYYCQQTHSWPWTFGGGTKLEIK . 2160
